Target: UniProt P29371
Sequence (P29371 whole entry): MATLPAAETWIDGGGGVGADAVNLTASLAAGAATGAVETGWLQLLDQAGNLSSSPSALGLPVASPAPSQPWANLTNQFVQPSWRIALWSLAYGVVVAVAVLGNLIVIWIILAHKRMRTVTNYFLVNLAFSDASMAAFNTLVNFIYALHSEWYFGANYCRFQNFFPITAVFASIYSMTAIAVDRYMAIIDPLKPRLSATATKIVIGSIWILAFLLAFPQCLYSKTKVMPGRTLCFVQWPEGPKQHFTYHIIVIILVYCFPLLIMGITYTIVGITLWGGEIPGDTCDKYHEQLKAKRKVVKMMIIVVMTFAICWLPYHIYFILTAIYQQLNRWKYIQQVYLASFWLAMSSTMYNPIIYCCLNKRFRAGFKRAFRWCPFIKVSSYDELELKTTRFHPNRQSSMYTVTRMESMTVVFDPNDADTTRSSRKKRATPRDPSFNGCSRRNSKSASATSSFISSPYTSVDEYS
Assay: Agonist activity at NK3R (unknown origin) transfected in CHO cells assessed as calcium influx […]
Assay type: functional, cell-based
Residues, ends and D or L forms follow the SMILES beside them.
PROPERTY: pEC50
Interpret pEC50 as the negative base-10 log of the concentration measured in mol/L.

stdin: Return pEC50 for the following compound: CSCC[C@H](NC(=O)[C@H](CC(C)C)NC(=O)CNC(=O)[C@H](Cc1ccccc1)N(C)C(=O)[C@H](Cc1ccccc1)NC(=O)[C@H](Cc1cnc[nH]1)NC(=O)[C@H](CC(=O)O)NC(=O)[C@H](Cc1cnc[nH]1)NC(=O)[C@H](CCSC)NC(=O)[C@@H](N)CC(=O)O)C(N)=O (HELM PEPTIDE1{D.M.H.D.H.F.[meF].G.L.M.[am]}$$$$V2.0)
stdout: 10.77

stdin: Report measured pEC50; entry is CSCC[C@H](NC(=O)[C@H](CC(C)C)NC(=O)CNC(=O)[C@@H](NC(=O)[C@H](Cc1ccccc1)NC(=O)[C@H](CCC(N)=O)NC(=O)[C@H](CC(=O)O)NC(=O)[C@H](CO)NC(=O)[C@H](CCCCN)NC(=O)[C@@H]1CCCN1C(=O)[C@@H](NC(=O)[C@@H](N)CC(=O)O)C(C)C)C(C)C)C(N)=O [KASSININ]
stdout: 9.68

====

Molecular target: Neuromedin-K receptor (Homo sapiens, UniProt P29371)
Sequence (P29371 whole entry): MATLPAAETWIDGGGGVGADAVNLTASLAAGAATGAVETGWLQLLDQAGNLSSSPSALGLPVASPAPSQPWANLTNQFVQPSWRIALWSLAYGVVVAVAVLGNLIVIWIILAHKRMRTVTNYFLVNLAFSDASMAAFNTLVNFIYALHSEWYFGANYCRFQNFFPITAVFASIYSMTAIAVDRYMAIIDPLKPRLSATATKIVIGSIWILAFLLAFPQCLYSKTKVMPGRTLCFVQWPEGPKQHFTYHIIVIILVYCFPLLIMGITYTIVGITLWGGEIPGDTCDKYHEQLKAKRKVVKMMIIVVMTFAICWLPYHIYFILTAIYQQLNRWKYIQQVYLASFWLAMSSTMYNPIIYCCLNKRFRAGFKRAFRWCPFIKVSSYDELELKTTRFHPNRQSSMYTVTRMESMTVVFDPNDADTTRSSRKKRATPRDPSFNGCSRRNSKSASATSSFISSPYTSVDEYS
Experiment: Displacement of ([125I]-His3, MePhe7)-NKB from NK3R (unknown origin) transfected in CHO cells by gamma counting analysis
pIC50: −log10 of the molar value. Residues, ends and D or L forms follow the SMILES beside them.
# cutoff 8 applies to pIC50; >= gives TRUE, < gives FALSE

CSCC[C@H](NC(=O)[C@H](CC(C)C)NC(=O)CNC(=O)[C@H](Cc1ccccc1)N(C)C(=O)[C@H](Cc1ccccc1)NC(=O)[C@@H](NC(=O)[C@H](CC(=O)O)NC(=O)[C@H](Cc1cnc[nH]1)NC(=O)[C@H](CCSC)NC(=O)[C@@H](N)CC(=O)O)[C@@H](C)O)C(N)=O (HELM PEPTIDE1{D.M.H.D.T.F.[meF].G.L.M.[am]}$$$$V2.0) : TRUE
CSCC[C@H](NC(=O)[C@H](CC(C)C)NC(=O)CNC(=O)[C@H](Cc1ccc(O)cc1)NC(=O)[C@H](Cc1ccccc1)NC(=O)[C@H](CCCCN)NC(=O)[C@H](CC(N)=O)NC(=O)[C@@H]1CCCN1C(=O)[C@H](CC(=O)O)NC(=O)[C@H](C)NC(=O)[C@@H]1CCC(=O)N1)C(N)=O : FALSE

stdin: Identify whether the reported pIC50 of the following compound is 8 or greater: CSCC[C@H](NC(=O)[C@H](CC(C)C)NC(=O)CNC(=O)[C@H](Cc1ccccc1)N(C)C(=O)[C@H](Cc1ccccc1)NC(=O)[C@H](Cc1ccc(O)cc1)NC(=O)[C@H](CC(=O)O)NC(=O)[C@H](Cc1cnc[nH]1)NC(=O)[C@H](CCSC)NC(=O)[C@@H](N)CC(=O)O)C(N)=O (HELM PEPTIDE1{D.M.H.D.Y.F.[meF].G.L.M.[am]}$$$$V2.0)
stdout: TRUE

stdin: Record CSCC[C@H](NC(=O)[C@H](CC(C)C)NC(=O)CNC(=O)[C@H](Cc1ccccc1)N(C)C(=O)[C@H](Cc1ccccc1)NC(=O)[C@H](CCC(N)=O)NC(=O)[C@H](CC(=O)O)NC(=O)[C@H](Cc1cnc[nH]1)NC(=O)[C@H](CCSC)NC(=O)[C@@H](N)CC(=O)O)C(N)=O (HELM PEPTIDE1{D.M.H.D.Q.F.[meF].G.L.M.[am]}$$$$V2.0) ; criterion: pIC50 no lower than 8. Met?
stdout: TRUE

stdin: I'd appreciate it if you could say whether CSCC[C@H](NC(=O)[C@H](CC(C)C)NC(=O)CNC(=O)[C@H](Cc1ccccc1)N(C)C(=O)[C@H](Cc1ccccc1)NC(=O)[C@H](CC(=O)O)NC(=O)[C@H](CC(=O)O)NC(=O)CNC(=O)[C@@H](NC(=O)[C@@H](N)CC(=O)O)[C@@H](C)O)C(N)=O (HELM PEPTIDE1{D.T.G.D.D.F.[meF].G.L.M.[am]}$$$$V2.0) has pIC50 at least equal to 8.
stdout: FALSE

stdin: Please check the record CSCC[C@H](NC(=O)[C@H](CC(C)C)NC(=O)CNC(=O)[C@H](Cc1ccccc1)N(C)C(=O)[C@H](Cc1ccccc1)NC(=O)[C@H](CC(=O)O)NC(=O)[C@H](CC(=O)O)NC(=O)[C@@H]1CCCN1C(=O)[C@H](CC(N)=O)NC(=O)[C@@H]1CCCN1C(=O)[C@@H]1CCC(=O)N1)C(N)=O (HELM PEPTIDE1{[Glp].P.N.P.D.D.F.[meF].G.L.M.[am]}$$$$V2.0) and state if its pIC50 is at or above 8.
stdout: FALSE
